Molecular target: T1, human TMEM106B (human, UniProt Q9NUM4 2-274)
T1 construct: Full-length, on transiently transfected HEK293 cells, or natively expressed on HeLa, U251 and A549 cells; also called huTMEM106B; huTMEM
Assay: FACS U251;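 note: flow cytometry of cells exposed to antibody (purified at 10 µg/mL, or hybridoma supernatant) for 1 h on ice, with propidium iodide-positive dead cells gated out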
MEASURED_ENDPOINT: MFI
Reply with the value as a number alone.

// query Would you kindly share the measured MFI for anti-TMEM106B antibody TM-28 (antibody, V domains shown) VH: EVQLQQSGPVLVKPGPSVKISCMASVFTFNDYYIHWVKQSHGKSLEWIGLVYPYNGGTNYNQNFKGKATLTVDTSSRTAYMELNSLTSEDSAVYYCARSYFSNPIGYWGQGTLVTVSE VL: DIVMTQSPSSLSVSVGEKVTVSCKSSQSLLNSGNQKNYLAWYQQKPGQPPKLLIYGASTRESGVPDRFTGSGSGTDFTLTISSVQAEDLAVYYCQNDHSYPLTFGAGTKLELK ?
// result 998

// query Which MFI is listed for anti-TMEM106B antibody TM-17 (antibody, V domains shown) VH: QVQLQQSGAELIRPGTSVKVSCKASGYAFTDYLIEWVKQRPGQGLEWIGVINPGSGGTNYNEKFKGKAKLTADKSSSTAYMQLSSLTSEDSAVYFCVRSSYGVYVAYPMDYWGQGTSVTVSS VL: DIQMTQSPSSLSASLGERVSLTCRASQDIGSNLNWLQQEPDGTIKRLIYATSSLDSGVPKRFSGSRSGSDYSLTISSLESEDFVDYYCLQYASSPRTFGGGTKLEIK ?
// result 305

// query Fill in the blank: the reported MFI of anti-TMEM106B antibody TM-7 (antibody, V domains shown) VH: EVQLQQSGPVLVKPGPPVKISCKASGFTFTDYYIHWVKLSHGKSLEWIGLVYPYNGDTDYNQKFKGKATLTVDTSSSTAYMELNSLTSEDSAVYYCARTYYANSPDYWGQGTTVTVSS VL: DIVMTQSPSSLSVSAGEKVTMSCKSSQSLLNSGNQRNYLAWYQQKPGQPPKLLIYGASTRESGVPDRFTGSGSGTDFTLTISNVQAEDLAVYYCQNDHSYPLTFGAGTKLELK is ____.
// result 442

// query Please look up its MFI: anti-TMEM106B antibody TM-19 (antibody, V domains shown) VH: DVQLQQSGAELVRPGASVKLSCTASGFNIKDYYMYWVKQRPEQGLEWIGRIDPEDGDTENAPKFRGMATMTADTSSNTAYLQLNSLTSEDTAVYYCTTRIGNLYHVMDYWGHGTSVTVSS VL: DVLMTQTPLSLPVSLGDQASISCRSSQSIVHSNGNTYLEWYLQKPGQAPKLLIDKVFNRFSGVPDRFSGSGSGTDFTLKISRVEAEDLGVYYCFQGSHVPFTFGSGTKLEIK
// result 878

// query For the binder anti-TMEM106B antibody TM-22 (antibody, V domains shown) VH: QVQLQQSGPELVKPGASVKISCKASGYRFTSYYIHWVKQRPGQGLEWIGWIYPGNGITNYNEKFKGKATLTADTSSSTAYMQLSSLTSEDSAVYYCASPYYGIRNCYFDVWGTGTTVTVSS VL: DVLMTQTPLSLPVSLGDHASISCRSGQSIVHSNGNTYLEWYLQKPGQSPKLLIYKVSNRFSGVPDRFSGSGSGTDFTLKISRVEAEDLGIYYCFQGSHVPWTFGGGTKLEIK , what MFI is on record?
// result 313
